system_under_test: T1, native human ApoC3 (human, UniProt P02656 21-99)
T1 construct: also called nhuApoC3; native huApoC3
assay_overview: SPR, ApoC3 over captured IgG1, pH 7.4
Protocol: An inverted SPR assay was designed in which a test antibody was captured on an SPR chip, human ApoC3 protein was injected, and binding of ApoC3 to the antibody was measured. […] The resulting sensorgrams were analyzed using the BIAevaluation 4.1 software using Langmuir 1:1 binding model to derive binding kinetics. […]
measurement_name: kon

binder	kon
mAb5 (antibody, IgG1, V domains shown, Produced as full length IgG1 (kappa) in ExpiCHO-S cells; also called humanized anti-ApoC3 antibody mAb5) VH: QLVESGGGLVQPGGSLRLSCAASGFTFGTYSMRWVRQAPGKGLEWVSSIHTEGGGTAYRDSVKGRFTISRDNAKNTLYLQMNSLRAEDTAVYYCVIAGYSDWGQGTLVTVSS VL: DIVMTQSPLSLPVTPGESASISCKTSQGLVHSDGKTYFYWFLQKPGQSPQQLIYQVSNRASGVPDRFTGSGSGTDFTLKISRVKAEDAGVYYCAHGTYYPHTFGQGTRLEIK	35100 M⁻¹ s⁻¹

What the record says about mAb6 (antibody, IgG1, V domains shown, Produced as full length IgG1 (kappa) in ExpiCHO-S cells; also called humanized anti-ApoC3 antibody mAb6) VH: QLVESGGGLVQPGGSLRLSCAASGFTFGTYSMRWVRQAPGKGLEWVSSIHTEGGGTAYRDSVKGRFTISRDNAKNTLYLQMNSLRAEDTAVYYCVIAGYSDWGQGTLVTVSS VL: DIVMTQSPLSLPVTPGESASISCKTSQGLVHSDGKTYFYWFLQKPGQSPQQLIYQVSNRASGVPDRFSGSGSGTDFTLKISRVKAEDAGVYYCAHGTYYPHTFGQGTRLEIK : kon is 40900 M⁻¹ s⁻¹
